Recorded IC50 by entry
# TEST SYSTEM: Dihydroorotate dehydrogenase (quinone), mitochondrial (Homo sapiens)
# Sequence (Q02127 whole entry): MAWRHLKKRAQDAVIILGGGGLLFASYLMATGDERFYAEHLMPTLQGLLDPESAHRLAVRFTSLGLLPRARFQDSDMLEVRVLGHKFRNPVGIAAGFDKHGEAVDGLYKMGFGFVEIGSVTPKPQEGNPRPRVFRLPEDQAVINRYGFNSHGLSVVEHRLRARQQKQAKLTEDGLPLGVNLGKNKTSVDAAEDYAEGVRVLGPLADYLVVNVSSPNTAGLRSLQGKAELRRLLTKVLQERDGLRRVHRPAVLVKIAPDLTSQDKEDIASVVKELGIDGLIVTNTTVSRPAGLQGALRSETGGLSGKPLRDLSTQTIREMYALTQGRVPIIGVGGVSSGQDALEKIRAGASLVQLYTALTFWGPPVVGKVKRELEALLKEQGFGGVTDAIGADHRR
Please report the result as a number followed by the unit.

Reference set, count: 9
SMILES INPUT	PARAMETER	MEASURED VALUE
CC/C(O)=C(\C#N)C(=O)Nc1ccc(-c2cccc(Cl)c2)c(C(=O)OC)c1	IC50	0.031 µM
CC/C(O)=C(\C#N)C(=O)Nc1ccc(-c2cccc(OC(F)F)c2)c(C(=O)OC)c1	IC50	0.034 µM
CC/C(O)=C(\C#N)C(=O)Nc1ccc(-c2ccc(F)cc2C)c(C(=O)OC)c1	IC50	0.049 µM
CC/C(O)=C(\C#N)C(=O)Nc1ccc(-c2cc(F)c(F)c(F)c2)c(C(=O)OC)c1	IC50	0.137 µM
CC/C(O)=C(\C#N)C(=O)Nc1ccc(-c2ccc(Cl)cc2)c(C(=O)OC)c1	IC50	0.045 µM
CC/C(O)=C(\C#N)C(=O)Nc1ccc(OS(=O)(=O)C(F)(F)F)c(C(=O)OC)c1	IC50	0.093 µM
CC/C(O)=C(\C#N)C(=O)Nc1ccc(-c2ccc3c(c2)OCCO3)c(C(=O)OC)c1	IC50	0.066 µM
CC/C(O)=C(\C#N)C(=O)Nc1ccc(-c2ccc3c(c2)OCO3)c(C(=O)OC)c1	IC50	0.076 µM
CCOc1cccc(-c2ccc(NC(=O)/C(C#N)=C(\O)CC)cc2C(=O)OC)c1	IC50	0.059 µM

Return the recorded IC50 value; entry: CC/C(O)=C(\C#N)C(=O)Nc1ccc(-c2ccc(F)nc2)c(C(=O)OC)c1
0.15 µM

* * *

# TEST SUMMARY: Half life in human plasma
# Assay type: ADME, organism-based
PARAMETER: half-life (days)
Write the number in days without appending the unit.

Return the recorded half-life value; entry: CC/C(O)=C(\C#N)C(=O)Nc1ccc(-c2ccc(F)cc2)c(C(=O)OC)c1
14

* * *

# TEST SUMMARY: Metabolic stability in human microsomes assessed as compound degradation at 5 uM after 30 mins
# Format: ADME, Microsome
# CONDITIONS: read-out: Drug metabolism
PARAMETER: metabolised at 0.5 h, 5 µM (%)
Write the number in % without appending the unit.

COMPOUND	metabolised at 0.5 h, 5 µM [%]
CC/C(O)=C(\C#N)C(=O)Nc1ccc(-c2ccc(F)cc2)c(C(=O)OC)c1	17

Moving on to another compound below.
Return the recorded metabolised at 0.5 h, 5 µM value; entry: C/C(O)=C(\C#N)C(=O)Nc1ccc(C(F)(F)F)cc1 [TERIFLUNOMIDE]
3

* * *

# TEST SUMMARY: Half life in rat at 1 mg/kg, iv
# Type: ADME, organism-based
# Design: dose 1 mg/kg, route intravenous
# CONDITIONS: in vivo
Recorded half-life by entry
Write the number in h without appending the unit.

MOLECULE	half-life, h
CC/C(O)=C(\C#N)C(=O)Nc1ccc(-c2ccc(F)cc2)c(C(=O)OC)c1	0.9
CC/C(O)=C(\C#N)C(=O)Nc1ccc(OS(=O)(=O)C(F)(F)F)c(C(=O)OC)c1	2
CC/C(O)=C(\C#N)C(=O)Nc1ccc(OS(=O)(=O)C(F)(F)F)cc1	8

Moving on to another molecule below.
Return the recorded half-life value; entry: C/C(O)=C(\C#N)C(=O)Nc1ccc(C(F)(F)F)cc1 [TERIFLUNOMIDE]
14.1
